# assay info: self-splicing fitness, log relative to wild type (ln ratio); higher = more splicing; Tetrahymena group I intron in knt gene, E. coli kanamycin selection, DiMSum; sequences stand for … in CUCUCU…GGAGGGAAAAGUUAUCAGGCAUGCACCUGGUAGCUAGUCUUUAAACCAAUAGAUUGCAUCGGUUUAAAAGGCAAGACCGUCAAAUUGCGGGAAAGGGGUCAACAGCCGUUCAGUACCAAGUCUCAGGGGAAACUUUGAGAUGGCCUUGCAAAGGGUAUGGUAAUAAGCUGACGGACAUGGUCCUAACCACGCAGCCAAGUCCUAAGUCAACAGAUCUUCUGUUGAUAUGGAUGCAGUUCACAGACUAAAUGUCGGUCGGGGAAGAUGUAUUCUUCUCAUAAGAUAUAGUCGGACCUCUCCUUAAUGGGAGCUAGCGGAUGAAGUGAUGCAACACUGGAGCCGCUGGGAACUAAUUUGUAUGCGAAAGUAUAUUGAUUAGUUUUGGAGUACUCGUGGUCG;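 note: selection with 25 µg/mL kanamycin versus none on LB agar overnight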
# experimental parameters: 37 °C
measurement label: self-splicing fitness (ln)
Hey, just send me the number, nothing else.

So for AGAGAGCAAUAUUACGGAUG , the logged self-splicing fitness (ln) turned out to be -1.4

So for GAGAAGCAAUAUUACGAGGC , the logged self-splicing fitness (ln) turned out to be -1.78

So for AGCUAGCAAUAUUACGGAGU , the logged self-splicing fitness (ln) turned out to be -2.18

So for GAAUAGCAAUAUUACGUAUG , the logged self-splicing fitness (ln) turned out to be -1.04

So for GUGUAGCAAUAUUACGAAAC , the logged self-splicing fitness (ln) turned out to be -1.89

So for CCGAAGCAAUAUUACGGUUC , the logged self-splicing fitness (ln) turned out to be -2.66

So for UUAUAGCAAUAUUACGUUAG , the logged self-splicing fitness (ln) turned out to be -0.717

So for CGUGAGCAAUAUUACGGGCG , the logged self-splicing fitness (ln) turned out to be -1.63

So for CAUUAGCAAUAUUACGAAUC , the logged self-splicing fitness (ln) turned out to be -2.49

So for GAGAAGCAAUAUUACGCCAU , the logged self-splicing fitness (ln) turned out to be -1.87

So for UUUCAGCAAUAUUACGAGCG , the logged self-splicing fitness (ln) turned out to be -0.289

So for AAUGAGCAAUAUUACGAAUC , the logged self-splicing fitness (ln) turned out to be -1.74

So for CGACAGCAAUAUUACGCGUU , the logged self-splicing fitness (ln) turned out to be -3.29

So for GGCCAGCAAUAUUACGUCCU , the logged self-splicing fitness (ln) turned out to be -0.4

So for GUACAGCAAUAUUACGUCAU , the logged self-splicing fitness (ln) turned out to be -1.13

So for CGUUAGCAAUAUUACGGACA , the logged self-splicing fitness (ln) turned out to be 0.172

So for CUACAGCAAUAUUACGGGGU , the logged self-splicing fitness (ln) turned out to be -2.34

So for AAAUAGCAAUAUUACGAGUC , the logged self-splicing fitness (ln) turned out to be -2.2

So for CCGAAGCAAUAUUACGCUCA , the logged self-splicing fitness (ln) turned out to be -3.47

So for CUUCAGCAAUAUUACGCUAU , the logged self-splicing fitness (ln) turned out to be -1.99

So for CAAAAGCAAUAUUACGAUAA , the logged self-splicing fitness (ln) turned out to be -0.871

So for GUGUAGCAAUAUUACGCCAA , the logged self-splicing fitness (ln) turned out to be -1.85

So for GGAUAGCAAUAUUACGAACA , the logged self-splicing fitness (ln) turned out to be 0.22

So for CAAGAGCAAUAUUACGGGGA , the logged self-splicing fitness (ln) turned out to be -2.67

###

# assay info: self-splicing fitness, log relative to wild type (ln ratio); higher = more splicing; Tetrahymena group I intron in knt gene, E. coli kanamycin selection, DiMSum; sequences stand for … in CUCUCU…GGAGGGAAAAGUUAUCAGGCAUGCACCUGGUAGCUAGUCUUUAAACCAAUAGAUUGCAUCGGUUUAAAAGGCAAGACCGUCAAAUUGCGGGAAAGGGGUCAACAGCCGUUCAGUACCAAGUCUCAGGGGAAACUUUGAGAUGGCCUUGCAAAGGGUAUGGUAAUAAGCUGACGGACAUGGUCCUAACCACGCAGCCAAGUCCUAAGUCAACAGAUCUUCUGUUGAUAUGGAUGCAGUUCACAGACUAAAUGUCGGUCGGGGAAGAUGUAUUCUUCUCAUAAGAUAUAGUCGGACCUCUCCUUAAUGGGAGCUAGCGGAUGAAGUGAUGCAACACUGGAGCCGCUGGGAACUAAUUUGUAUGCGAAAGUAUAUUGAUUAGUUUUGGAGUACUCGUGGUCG
# experimental parameters: 30 °C
measurement label: self-splicing fitness (ln)
Hey, just send me the number, nothing else.

So for CUCGAGCAAUAUUACGCGGC , the logged self-splicing fitness (ln) turned out to be -3.35

So for UAAUAGCAAUAUUACGACAU , the logged self-splicing fitness (ln) turned out to be -3.38

So for UCCUAGCAAUAUUACGAUGU , the logged self-splicing fitness (ln) turned out to be -1.49

So for UGGAAGCAAUAUUACGCGCG , the logged self-splicing fitness (ln) turned out to be 0.222

So for CAAUAGCAAUAUUACGUAUU , the logged self-splicing fitness (ln) turned out to be -3.25

So for AUCGAGCAAUAUUACGCAAA , the logged self-splicing fitness (ln) turned out to be -2.86

So for AUAAAGCAAUAUUACGAUCA , the logged self-splicing fitness (ln) turned out to be 0.0672

So for UGCGAGCAAUAUUACGGGCG , the logged self-splicing fitness (ln) turned out to be -1.59

So for CUACAGCAAUAUUACGUACC , the logged self-splicing fitness (ln) turned out to be -3.08

So for CGCCAGCAAUAUUACGCAUU , the logged self-splicing fitness (ln) turned out to be -3.11

So for UCUAAGCAAUAUUACGUUGU , the logged self-splicing fitness (ln) turned out to be -4.19

So for GAGCAGCAAUAUUACGAUAC , the logged self-splicing fitness (ln) turned out to be -1.61

So for CGGCAGCAAUAUUACGAACG , the logged self-splicing fitness (ln) turned out to be -1.11

###

Please provide measured self-splicing fitness (ln) for the entries that follow.
# assay info: self-splicing fitness, log relative to wild type (ln ratio); higher = more splicing; Tetrahymena group I intron in knt gene, E. coli kanamycin selection, DiMSum; sequences stand for … in CUCUCU…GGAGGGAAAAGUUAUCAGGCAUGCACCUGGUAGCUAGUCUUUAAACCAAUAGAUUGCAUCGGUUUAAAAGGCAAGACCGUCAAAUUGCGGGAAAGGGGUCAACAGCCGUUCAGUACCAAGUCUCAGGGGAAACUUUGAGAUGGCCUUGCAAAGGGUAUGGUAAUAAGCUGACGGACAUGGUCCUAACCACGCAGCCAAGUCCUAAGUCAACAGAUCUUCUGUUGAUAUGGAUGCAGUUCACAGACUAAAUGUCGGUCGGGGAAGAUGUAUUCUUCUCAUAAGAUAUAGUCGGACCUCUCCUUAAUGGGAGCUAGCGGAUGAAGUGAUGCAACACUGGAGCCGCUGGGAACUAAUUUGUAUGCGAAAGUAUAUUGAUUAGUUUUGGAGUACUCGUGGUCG
# experimental parameters: 37 °C

So for UAGAAGCAAUAUUACGGAGG , the logged self-splicing fitness (ln) turned out to be -0.889

So for CGGAAGCAAUAUUACGCAAA , the logged self-splicing fitness (ln) turned out to be -2.55

So for UCAUAGCAAUAUUACGGGCG , the logged self-splicing fitness (ln) turned out to be -0.909

So for GUGAAGCAAUAUUACGCGUG , the logged self-splicing fitness (ln) turned out to be -0.134

So for GCAUAGCAAUAUUACGCAGC , the logged self-splicing fitness (ln) turned out to be -1.68

So for UCAAAGCAAUAUUACGUUGA , the logged self-splicing fitness (ln) turned out to be -2.66

So for GGUCAGCAAUAUUACGUAUG , the logged self-splicing fitness (ln) turned out to be 0.0829

So for AAGGAGCAAUAUUACGGGAA , the logged self-splicing fitness (ln) turned out to be -3.29

So for UACCAGCAAUAUUACGUGGU , the logged self-splicing fitness (ln) turned out to be -2.89

So for CCCCAGCAAUAUUACGUAUU , the logged self-splicing fitness (ln) turned out to be -3.28

So for UAAAAGCAAUAUUACGGGCA , the logged self-splicing fitness (ln) turned out to be 0.0848

So for ACUUAGCAAUAUUACGACAA , the logged self-splicing fitness (ln) turned out to be -0.888

So for GGAAAGCAAUAUUACGUGUA , the logged self-splicing fitness (ln) turned out to be -1.8

So for GUAAAGCAAUAUUACGCGAU , the logged self-splicing fitness (ln) turned out to be -1.42

So for AGGUAGCAAUAUUACGCCUU , the logged self-splicing fitness (ln) turned out to be -2.87

So for CAACAGCAAUAUUACGCGAU , the logged self-splicing fitness (ln) turned out to be -2.63

So for AACCAGCAAUAUUACGCUGC , the logged self-splicing fitness (ln) turned out to be -3.1

So for UACAAGCAAUAUUACGUACU , the logged self-splicing fitness (ln) turned out to be -1.45

So for CGAUAGCAAUAUUACGUUAG , the logged self-splicing fitness (ln) turned out to be -0.52

So for AAAUAGCAAUAUUACGCCGA , the logged self-splicing fitness (ln) turned out to be -0.837

So for GGAGAGCAAUAUUACGACUG , the logged self-splicing fitness (ln) turned out to be -1.15

So for AUGUAGCAAUAUUACGGUCU , the logged self-splicing fitness (ln) turned out to be -0.014

So for AUUUAGCAAUAUUACGACCC , the logged self-splicing fitness (ln) turned out to be -0.0521

So for AGCGAGCAAUAUUACGGAGA , the logged self-splicing fitness (ln) turned out to be -2.14

So for GGUAAGCAAUAUUACGAUUC , the logged self-splicing fitness (ln) turned out to be 0.0485

So for CGUCAGCAAUAUUACGGGCA , the logged self-splicing fitness (ln) turned out to be 0.572

So for GAACAGCAAUAUUACGAACA , the logged self-splicing fitness (ln) turned out to be -0.166

So for GAUCAGCAAUAUUACGGCAG , the logged self-splicing fitness (ln) turned out to be -2.34

So for CUGGAGCAAUAUUACGGGUU , the logged self-splicing fitness (ln) turned out to be -2.91

So for CUCAAGCAAUAUUACGCUGG , the logged self-splicing fitness (ln) turned out to be -2.62

So for CACAAGCAAUAUUACGCAUC , the logged self-splicing fitness (ln) turned out to be -2.29

So for CGAAAGCAAUAUUACGCGCG , the logged self-splicing fitness (ln) turned out to be -1.34

Where do the numbers come from? From the supplement of paper PMC7877785.
